Experiment: Volume of distribution at steady state in Sprague-Dawley rat at 0.3 mg/kg, iv by LC-MS/MS analysis
Type: ADME, organism-based
Settings: in vivo, read-out: Vdss
Reported property: Vd (L/kg)

Smi: O=S1(=O)NCc2cccc(-c3ccc(Oc4ccccc4)cc3)c2O1
Reported property: Vd
Uom: L/kg
Measured value: 1.79

====

Test: Drug concentration in Sprague-Dawley rat brain at 1 mg/kg, po measured after 0.25 hr by LC-MS/MS analysis
Type: ADME, organism-based
Settings: read-out: Ct
Reported property: concentration at 0.25 h (ng/g)

Smi: O=S1(=O)NCc2cccc(-c3ccc(-c4ccccc4F)cc3)c2O1
Measured value: 74.7
